Listed here are molecules together with their documented melting point.
metric_name: melting point

{"molecule": "OC1CS[C@@H](n2cnc3c(NCc4cccc(Br)c4)nc(Cl)nc32)C1O (stereo in doubt)", "metric_name": "melting point", "observed_measurement": "184 to 185 °C"}
{"molecule": "O=C(O)c1cccc(CNc2nc(Cl)nc3c2ncn3[C@@H]2SCC(O)C2O)c1 (stereo in doubt)", "metric_name": "melting point", "observed_measurement": "254 to 256.99 °C"}
{"molecule": "COc1ccccc1CNc1nc(Cl)nc2c1ncn2[C@@H]1SCC(O)C1O (stereo in doubt)", "metric_name": "melting point", "observed_measurement": "188 °C"}
{"molecule": "OC1CS[C@@H](n2cnc3c(NCc4cccc(F)c4)nc(Cl)nc32)C1O (stereo in doubt)", "metric_name": "melting point", "observed_measurement": "183.2 to 183.5 °C"}

----------
tested_on: human A2A adenosine receptor (hA2A) (Homo sapiens (Human), UniProt P29274)
Sequence (P29274 whole entry): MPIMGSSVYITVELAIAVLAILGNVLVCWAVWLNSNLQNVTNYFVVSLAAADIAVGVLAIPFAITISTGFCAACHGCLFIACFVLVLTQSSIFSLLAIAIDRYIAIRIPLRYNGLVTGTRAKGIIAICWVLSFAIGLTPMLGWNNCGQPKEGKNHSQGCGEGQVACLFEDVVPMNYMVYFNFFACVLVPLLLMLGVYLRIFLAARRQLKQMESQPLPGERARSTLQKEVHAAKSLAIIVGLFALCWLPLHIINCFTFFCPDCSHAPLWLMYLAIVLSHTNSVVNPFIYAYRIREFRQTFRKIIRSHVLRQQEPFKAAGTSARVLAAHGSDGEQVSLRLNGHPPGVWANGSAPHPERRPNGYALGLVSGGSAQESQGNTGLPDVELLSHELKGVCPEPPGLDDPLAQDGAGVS
assay_overview: Binding affinity for human A2A adenosine receptor ([3H]CGS-21680, HEK 293 cell)
condition_parameters: nM ± SEM
Label TRUE when Ki is strictly below 1000 nM; otherwise label FALSE.

{"molecule": "OC1CS[C@@H](n2cnc3c(NCc4ccccc4Cl)nc(Cl)nc32)C1O (stereo in doubt)", "tested_on": "human A2A adenosine receptor (hA2A) (Homo sapiens (Human), UniProt P29274)", "assigned_class": "FALSE"}
{"molecule": "COc1ccc(Cl)cc1CNc1nc(Cl)nc2c1ncn2[C@@H]1SCC(O)C1O (stereo in doubt)", "tested_on": "human A2A adenosine receptor (hA2A) (Homo sapiens (Human), UniProt P29274)", "assigned_class": "FALSE"}
{"molecule": "OC1CS[C@@H](n2cnc3c(NCc4cccc(Cl)c4)ncnc32)C1O (stereo in doubt)", "tested_on": "human A2A adenosine receptor (hA2A) (Homo sapiens (Human), UniProt P29274)", "assigned_class": "TRUE"}
{"molecule": "OC1CS[C@@H](n2cnc3c(NCc4cccc(F)c4)ncnc32)C1O (stereo in doubt)", "tested_on": "human A2A adenosine receptor (hA2A) (Homo sapiens (Human), UniProt P29274)", "assigned_class": "FALSE"}
{"molecule": "OC1CS[C@@H](n2cnc3c(NCc4cccc(Br)c4)ncnc32)C1O (stereo in doubt)", "tested_on": "human A2A adenosine receptor (hA2A) (Homo sapiens (Human), UniProt P29274)", "assigned_class": "TRUE"}

----------
tested_on: UniProt P28647
Sequence (P28647 whole entry): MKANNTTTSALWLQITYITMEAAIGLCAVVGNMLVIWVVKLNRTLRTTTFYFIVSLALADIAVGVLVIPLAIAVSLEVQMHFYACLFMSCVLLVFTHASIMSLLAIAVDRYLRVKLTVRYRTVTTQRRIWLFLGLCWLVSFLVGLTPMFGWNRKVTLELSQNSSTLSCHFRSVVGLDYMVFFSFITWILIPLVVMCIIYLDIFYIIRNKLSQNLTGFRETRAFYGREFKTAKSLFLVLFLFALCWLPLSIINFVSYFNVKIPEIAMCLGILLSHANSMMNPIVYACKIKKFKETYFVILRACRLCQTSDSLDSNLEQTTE
metric_name: Ki (nM)

{"structure_string": "O[C@@H]1[C@H](O)CS[C@H]1n1cnc2c(NCc3cccc(I)c3)nc(Cl)nc21", "tested_on": "UniProt P28647", "observed_measurement": 3.89}

----------
{"molecule": "OC1CS[C@@H](n2cnc3c(NCc4ccccc4Cl)nc(Cl)nc32)C1O (stereo in doubt)", "melting point": "198.7 to 199.7 °C"}
{"molecule": "OC1CS[C@@H](n2cnc3c(NCc4cccc5ccccc45)nc(Cl)nc32)C1O (stereo in doubt)", "melting point": "226.3 °C (dec.)"}
{"molecule": "OC1CS[C@@H](n2cnc3c(NCc4cccc(I)c4)ncnc32)C1O (stereo in doubt)", "melting point": "198.8 to 199.8 °C"}
{"molecule": "OC1CS[C@@H](n2cnc3c(NCc4cccc(Br)c4)ncnc32)C1O (stereo in doubt)", "melting point": "183 to 184 °C"}
{"molecule": "OC1CO[C@@H](n2cnc3c(NCc4cccc(I)c4)nc(Cl)nc32)[C@H]1O (stereo partly shown)", "melting point": "195.5 to 195.8 °C"}
{"molecule": "OC1CO[C@@H](n2cnc3c(NCc4cccc(Br)c4)nc(Cl)nc32)C1O (stereo in doubt)", "melting point": "181.5 to 181.7 °C"}
{"molecule": "COc1ccc(Cl)cc1CNc1nc(Cl)nc2c1ncn2[C@@H]1SCC(O)C1O (stereo in doubt)", "melting point": "188.8 to 189.8 °C"}
